System: Plasmodium berghei
protocol-text: Antimalarial activity in Plasmodium berghei infected mice (Mus musculus) after 80 mg/kg subcutaneous dose
Type: functional
Please assign Not satisfied whenever Delta mean survival time is at or above 6, and Satisfied whenever it is below.

Worked set:
compound	label-value
CN(C)CCC/N=C1/c2c([nH]c3ccc(Cl)cc3c2=O)CC(c2ccc(Cl)c(Cl)c2)C1c1ccccc1 (centres undefined)	Not satisfied
CN(C)CCC/N=C1\CC(c2cccc3ccccc23)Cc2c1c(=O)c1cc(Cl)ccc1n2O (centres undefined)	Not satisfied
O=C1CC(c2ccccc2Cl)Cc2nc3ccc(Cl)cc3c(O)c21 (centres undefined)	Satisfied
CN(C)CCC/N=C1\CC(c2ccc(C3CCCCC3)cc2)Cc2nc3ccc(Cl)cc3c(O)c21 (centres undefined)	Not satisfied
CN(C)CCC/N=C1\CC(c2ccccc2)Cc2c1c(=O)c1cc(Cl)ccc1n2O (centres undefined)	Satisfied

Query: Given the entry CCN(CC)CC/N=C1\CC(c2ccc(Cl)c(Cl)c2)Cc2nc3ccc(Cl)cc3c(O)c21 (centres undefined) , would its reported Delta mean survival time be below 6?
Reply: Not satisfied

Query: Subsequent entry: CSc1ccc(C2C/C(=N\CCCN(C)C)c3c(nc4ccc(Cl)cc4c3O)C2)cc1 (centres undefined)
Reply: Satisfied

Query: How about CN(C)CCC/N=C1\CC(c2ccc(C(F)(F)F)cc2)Cc2nc3cc(Cl)ccc3c(O)c21 (centres undefined) ?
Reply: Not satisfied

---

System: Plasmodium berghei
protocol-text: Antimalarial activity Plasmodium berghei infected mice (Mus musculus) after 640 mg/kg subcutaneous dose
Type: functional
Respond with fulfilled for Delta mean survival time values of 7 and above, not fulfilled for values below.

compound	label-value
O=C1CC(c2ccncc2)Cc2c1c(=O)c1cc(Cl)ccc1n2O (stereo not given)	not fulfilled
CN(C)CCC/N=C1\CC(c2ccc(C3CCCCC3)cc2)Cc2nc3ccc(Cl)cc3c(O)c21 (stereo not given)	fulfilled
O=C1c2c(nc3ccc(Cl)cc3c2O)CCC1c1ccccc1 (stereo not given)	not fulfilled
Cc1ccc(C2CC(=O)c3c(nc4ccc(Cl)cc4c3O)C2)cc1 (stereo not given)	fulfilled

Next up:
Query: Delta mean survival time >= 7 for O=C1CC(c2ccc(C(F)(F)F)cc2)Cc2nc3ccc(Br)cc3c(O)c21 (stereo not given) ?
Reply: fulfilled

---

Tested on: Plasmodium berghei
protocol-text: Antimalarial activity was measured against mice (Mus musculus) infected with Plasmodium berghei by subcutaneous administration of 320 mg/kg dose
Assay type: organism-based
Set-up: dose 320 mg/kg, route subcutaneous
condition-description: in vivo, sc
reported-endpoint: No. of toxic deaths
Give the figure only, with no unit attached.

Sample answers from the record:
compound	study-target	measured-result
CN(C)CCC/N=C1\CC(c2ccc(C(F)(F)F)cc2)Cc2c1c(=O)c1cc(Cl)ccc1n2O (stereo not given)	Plasmodium berghei	3
O=c1c2c(n(O)c3ccc(Cl)cc13)CC(c1ccc(C(F)(F)F)cc1)C/C2=N\CCCN1CCCC1 (stereo not given)	Plasmodium berghei	1
O=C1CC(c2ccc(Cl)cc2Cl)Cc2nc3c(Cl)cccc3c(O)c21 (stereo not given)	Plasmodium berghei	2
CCN(CC)CCC/N=C1\CC(c2ccc(C(F)(F)F)cc2)Cc2c1c(=O)c1cc(Cl)ccc1n2O (stereo not given)	Plasmodium berghei	3

Shifting focus to the compound that follows.
Query: Please report the recorded No. of toxic deaths for CCN(CC)CC/N=C1\CC(c2ccc(C(F)(F)F)cc2)Cc2c1c(=O)c1cc(Cl)ccc1n2O (stereo not given) .
Reply: 1
